For each of the molecules below, state its GI50.
System: NCI-H522 lung
Assay: NCI tumour cell line growth inhibition, 48 h

Please fill in: GI50 reported for CC(C)CCCCCCCCCCCCC(=O)NCC(=O)NC1C(C)OC(Nc2ncnc3nc[nH]c23)C(O)C1O (stereo not given) = 0.00137 µM

Please fill in: GI50 reported for `S=C1SCN(Cc2ccccc2)CN1Cc1ccccc1` = 3.83 µM

Please fill in: GI50 reported for CCN1C(=O)N(CC)C2C1NN=c1s/c(=C\c3ccc(C(F)(F)F)cc3)c(=O)n12 (stereo not given) = 0.263 µM

Please fill in: GI50 reported for `CCCCc1n(Cc2ccc3ccccc3n2)cc[n+]1Cc1ccc2ccccc2n1` = 0.445 µM

Please fill in: GI50 reported for Cc1ccc2[nH]c(C(=O)NN3C(=O)C(C)SC34CCC(C)CC4)c(-c3ccccc3)c2c1 (stereo not given) = 13 µM

Please fill in: GI50 reported for `Cc1ccc(-c2nc(/C=N/Nc3cc(C)nc4ccc(Br)cc34)c(C)o2)cc1` = 1.94 µM

Please fill in: GI50 reported for `Fc1ccc(-c2ncn(CCCN3CCOCC3)c2-c2ccncc2)cc1` = > 25 µM

Please fill in: GI50 reported for `COc1cc2c(cc1O)c(=O)n(CCN(C)C)c1c3cc4c(cc3ncc21)OCO4` = < 0.0104 µM

Please fill in: GI50 reported for `CC(=O)Nc1ccc(OC(C)=O)cc1` = < 0.01 µM

Please fill in: GI50 reported for `CC[C@]12C=CCN3CC[C@@]4(c5ccc(OC)cc5N(C)[C@H]4[C@@](O)(C(=O)OC)[C@@H]1OC(=O)CCC(=O)O[C@H]1CC[C@H]4[C@@H]5CC[C@H]6CC(=O)CC[C@]6(C)[C@H]5CC[C@]14C)[C@@H]32` = 2.85 µM
